# measured on: mGAT3 (Mus musculus)
# Construct: expressed in transfected cells; host or cells: HEK293
# Sequence (P31649 1-602): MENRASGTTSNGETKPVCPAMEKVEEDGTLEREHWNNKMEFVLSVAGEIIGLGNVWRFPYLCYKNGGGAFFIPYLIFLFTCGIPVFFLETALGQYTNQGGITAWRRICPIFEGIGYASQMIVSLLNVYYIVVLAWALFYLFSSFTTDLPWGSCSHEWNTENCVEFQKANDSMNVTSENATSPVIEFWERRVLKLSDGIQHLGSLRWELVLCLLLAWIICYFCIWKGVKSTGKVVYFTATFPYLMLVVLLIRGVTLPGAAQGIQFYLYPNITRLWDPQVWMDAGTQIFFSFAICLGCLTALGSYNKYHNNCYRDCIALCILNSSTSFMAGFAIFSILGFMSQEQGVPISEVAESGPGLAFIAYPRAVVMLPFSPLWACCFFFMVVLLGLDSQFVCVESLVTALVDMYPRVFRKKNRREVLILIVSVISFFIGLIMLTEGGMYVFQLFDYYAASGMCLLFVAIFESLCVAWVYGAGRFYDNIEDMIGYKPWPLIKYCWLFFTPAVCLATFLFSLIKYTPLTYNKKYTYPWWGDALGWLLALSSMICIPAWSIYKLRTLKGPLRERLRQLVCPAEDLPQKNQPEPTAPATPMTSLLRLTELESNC
# run description: [^3H]GABA uptake assay, HEK293 cells expressing mGAT3
# Type: cell-based
# measurement parameters: HEK293; in presence of 100 μM compound
readout: remaining activity at 100 µM (%)

These solved cases illustrate the format of a correct answer.
| molecule | remaining activity at 100 µM / % |
| --- | --- |
| CCOC(=O)C1CCCN(CCOC(c2ccc(OC)cc2)(c2ccc(OC)cc2)c2ccc(C(C)=O)cc2)C1 (racemic) [12 b] | 55.2 |
| COc1ccc(C(OCCN2CCCC(C(=O)O)C2)(c2ccc(OC)cc2)c2ccc3nccn3c2)cc1 (racemic) [5 d] | 81.8 |
| CCOC(=O)C1CCCN(CCOC(c2ccc(COC)cc2)(c2ccc(OC)cc2)c2ccc(OC)cc2)C1 (racemic) [12 f] | 56.9 |
| COc1ccc(C(O)(CCCN2CCCC(C(=O)O)C2)c2ccc(OC)cc2)cc1 (racemic) [5 l] | 80.7 |
| COc1ccc(C(OCCN2CCCC(C(=O)O)C2)(c2ccc(OC)cc2)c2ccc(C(N)=O)cc2)cc1 (racemic) [5 j] | 82.1 |

P. CCOC(=O)C1CCCN(CCOC(c2ccc(COC)cc2)(c2ccc(COC)cc2)c2ccc(OC)cc2)C1 (racemic) [12 h]
Q. CCOC(=O)C1CCCN(CCOC(c2ccc(OC)cc2)(c2ccc(OC)cc2)c2ccc(S(=O)(=O)N(C)C)cc2)C1 (racemic) [12 c]
P or Q : whose remaining activity at 100 µM is greater? Give the label of your selection. Q
(Q: 95.9%, P: 50.6%)
